Entries annotated with measured pIC50
subject_of_test: human sodium ion channel 1.7 (hNav1.7) (Homo sapiens, UniProt Q15858)
Sequence (Q15858 whole entry): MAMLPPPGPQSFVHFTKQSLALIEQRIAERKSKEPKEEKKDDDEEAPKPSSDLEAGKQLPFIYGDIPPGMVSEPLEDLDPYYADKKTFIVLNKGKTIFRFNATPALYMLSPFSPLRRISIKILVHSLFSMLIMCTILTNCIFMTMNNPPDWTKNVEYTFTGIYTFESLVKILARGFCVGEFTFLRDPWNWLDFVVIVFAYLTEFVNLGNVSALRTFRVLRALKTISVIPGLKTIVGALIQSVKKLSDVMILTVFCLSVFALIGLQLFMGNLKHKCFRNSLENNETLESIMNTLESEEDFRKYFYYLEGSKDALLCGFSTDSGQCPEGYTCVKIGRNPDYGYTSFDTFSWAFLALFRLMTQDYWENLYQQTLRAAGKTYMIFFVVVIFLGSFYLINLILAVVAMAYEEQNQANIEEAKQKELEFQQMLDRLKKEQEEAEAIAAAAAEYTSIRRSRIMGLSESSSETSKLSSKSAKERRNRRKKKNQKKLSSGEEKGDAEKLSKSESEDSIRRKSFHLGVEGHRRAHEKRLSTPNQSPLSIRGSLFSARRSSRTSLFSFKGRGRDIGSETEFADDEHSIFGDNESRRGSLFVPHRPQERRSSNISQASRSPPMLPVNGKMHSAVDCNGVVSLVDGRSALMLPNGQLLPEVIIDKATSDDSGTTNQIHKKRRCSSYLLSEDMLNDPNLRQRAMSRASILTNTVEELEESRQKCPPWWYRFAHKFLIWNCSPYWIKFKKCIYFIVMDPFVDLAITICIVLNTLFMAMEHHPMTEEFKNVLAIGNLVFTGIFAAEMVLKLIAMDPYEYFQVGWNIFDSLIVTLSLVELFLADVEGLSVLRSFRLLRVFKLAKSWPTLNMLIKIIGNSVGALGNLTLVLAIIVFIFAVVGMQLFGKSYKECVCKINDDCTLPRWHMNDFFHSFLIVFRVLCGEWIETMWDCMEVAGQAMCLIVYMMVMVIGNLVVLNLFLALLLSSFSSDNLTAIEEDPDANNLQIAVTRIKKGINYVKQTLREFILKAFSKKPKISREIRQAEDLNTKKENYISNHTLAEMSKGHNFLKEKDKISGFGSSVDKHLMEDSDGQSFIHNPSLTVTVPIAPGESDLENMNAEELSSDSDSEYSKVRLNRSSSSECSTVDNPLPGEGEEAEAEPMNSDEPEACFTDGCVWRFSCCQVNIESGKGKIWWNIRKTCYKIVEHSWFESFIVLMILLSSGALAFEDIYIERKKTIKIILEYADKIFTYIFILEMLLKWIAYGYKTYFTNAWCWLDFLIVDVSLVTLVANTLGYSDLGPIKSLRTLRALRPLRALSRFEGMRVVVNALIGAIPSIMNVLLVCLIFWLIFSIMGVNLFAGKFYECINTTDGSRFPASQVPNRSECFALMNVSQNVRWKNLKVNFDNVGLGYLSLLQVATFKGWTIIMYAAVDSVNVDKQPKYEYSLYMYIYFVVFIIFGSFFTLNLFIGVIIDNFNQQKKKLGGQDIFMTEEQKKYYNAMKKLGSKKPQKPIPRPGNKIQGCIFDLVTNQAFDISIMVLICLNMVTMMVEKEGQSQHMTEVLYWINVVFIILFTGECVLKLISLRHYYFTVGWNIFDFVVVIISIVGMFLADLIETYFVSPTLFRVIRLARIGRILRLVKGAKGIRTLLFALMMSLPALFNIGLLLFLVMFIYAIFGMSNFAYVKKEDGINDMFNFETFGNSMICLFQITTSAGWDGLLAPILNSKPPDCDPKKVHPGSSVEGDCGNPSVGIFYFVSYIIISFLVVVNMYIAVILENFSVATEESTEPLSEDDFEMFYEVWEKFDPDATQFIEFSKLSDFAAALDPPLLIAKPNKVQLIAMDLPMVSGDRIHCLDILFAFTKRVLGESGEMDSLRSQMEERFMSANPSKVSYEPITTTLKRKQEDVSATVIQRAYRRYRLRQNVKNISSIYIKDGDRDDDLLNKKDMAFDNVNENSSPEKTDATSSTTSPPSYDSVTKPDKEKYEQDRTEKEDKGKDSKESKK
assay_notes: Blocking effect against sodium ion channel Nav1.7, IonFlux16 auto patch clamp in hNav1.7 HEK293 cells
Format: cell-based
particulars: hNav1.7 HEK293 cells; inhibition of peak current after 50 seconds treatment; eight concentrations; read-out: IC50
pIC50: −log10 of the molar value.
measured_parameter: pIC50

• CS(=O)(=O)NC(=O)c1cc(Cl)c(-n2cc(-c3ccc(F)cc3)c3cc(Cl)cnc32)cc1F = 7.10
• Cc1cccc(-c2nn(-c3cc(F)c(C(=O)NS(C)(=O)=O)cc3Cl)c3ccc(F)cc23)c1 = 7.10
• CS(=O)(=O)NC(=O)c1ccc(-n2nc(Cl)c3cc(Cl)ccc32)c(Cl)c1 = 6.06
• CS(=O)(=O)NC(=O)c1cc(Cl)c(-n2cc(-c3ccc(Cl)cc3)c3cccnc32)cc1F = 6.55
• CS(=O)(=O)NC(=O)c1cc(Cl)c(-n2nc(Cl)c3cc(-c4ccc(F)nc4)ccc32)cc1F = 5.78
• CS(=O)(=O)NC(=O)c1cc(F)c(-n2nc(-c3cccc(F)c3)c3cc(Cl)ccc32)cc1Cl = 5.84
• CS(=O)(=O)NC(=O)c1cc(F)c(-n2nc(-c3ccc(F)cc3F)c3cc(Cl)ccc32)cc1Cl = 6.14
• CS(=O)(=O)NC(=O)c1cc(Cl)c(-n2nc(Cl)c3cc(OCCc4ccccc4)ccc32)cc1F = 6.72
• CS(=O)(=O)NC(=O)c1cc(Cl)c(-n2nc(Cl)c3cc([N+](=O)[O-])ccc32)cc1F = 6.44
• CS(=O)(=O)NC(=O)c1cc(Cl)c(-n2nc(-c3ccc(F)cc3F)c3cc(Cl)ccc32)cc1F = 7.40
• CS(=O)(=O)NC(=O)c1cc(Cl)c(-n2nc(Cl)c3cc(-c4cccc(F)c4)ccc32)cc1F = 7.05
• CS(=O)(=O)NC(=O)c1cc(Cl)c(-n2nc(Cl)c3c(Cl)c(OCc4ccccc4F)ccc32)cc1F = 6.80
• CS(=O)(=O)NC(=O)c1cc(Cl)c(-n2cc(-c3ccccc3F)c3cccnc32)cc1F = 6.14
• CS(=O)(=O)NC(=O)c1cc(Cl)c(-n2nc(-c3ccc(F)c(F)c3)c3cc(Cl)ccc32)cc1F = 6.74
• COc1ncccc1-c1nn(-c2cc(F)c(C(=O)NS(C)(=O)=O)cc2Cl)c2ccc(Cl)cc12 = 6.91
• CS(=O)(=O)NC(=O)c1cc(Cl)c(-n2cc(-c3ccccc3F)c3cc(Cl)cnc32)cc1F = 6.96
• CS(=O)(=O)NC(=O)c1cc(Cl)c(-n2cc(-c3ccc(F)cc3F)c3cc(F)cnc32)cc1F = 7.10
• CS(=O)(=O)NC(=O)c1ccc(-n2nc(-c3ccc(Cl)cc3F)c3cc(Cl)ccc32)c(C#N)c1 = 6.55
• CS(=O)(=O)NC(=O)c1cc(Cl)c(-n2nc(-c3ccc(Cl)cc3F)c3ccccc32)cc1F = 7.15
• CS(=O)(=O)NC(=O)c1ccc(-n2nc(-c3ccc(C#N)cc3)c3cc(Cl)ccc32)c(F)c1 = 5.41
• CS(=O)(=O)NC(=O)c1cc(Cl)c(-n2nc(Cl)c3cc(-c4ccc(F)cc4)ccc32)cc1F = 7.15
• COc1ccc(-c2ccc3c(c2)c(Cl)nn3-c2cc(F)c(C(=O)NS(C)(=O)=O)cc2Cl)cc1 = 7.06
• CS(=O)(=O)NC(=O)c1ccc(-n2nc(Cl)c3cc(OCc4ccccc4)ccc32)c(Cl)c1 = 6.78
• COc1cccc(-c2nn(-c3cc(F)c(C(=O)NS(C)(=O)=O)cc3Cl)c3ccc(F)cc23)c1 = 7.10
• CS(=O)(=O)NC(=O)c1cc(Cl)c(-n2nc(-c3ccccc3)c3cc(C4CC4)ccc32)cc1F = 7.00
• N#Cc1cc(S(=O)(=O)Nc2cscn2)ccc1-n1nc(Cl)c2cc(C(F)(F)F)ccc21 = 5.05
• CS(=O)(=O)NC(=O)c1cc(Cl)c(-n2nc(-c3ccc(Cl)cc3F)c3cc(Cl)ccc32)cc1F = 7.80

====

subject_of_test: human sodium ion channel 1.7 (hNav1.7) (Homo sapiens, UniProt Q15858)
assay_notes: Blocking effect against sodium ion channel Nav1.7, IonFlux16 auto patch clamp in hNav1.7 HEK293 cells
Assay type: cell-based
particulars: hNav1.7 HEK293 cells; inhibition of peak current after 50 seconds treatment; eight concentrations; read-out: IC50
pIC50: −log10 of the molar value.
measured_parameter: pIC50

* Cc1ccccc1-c1nn(-c2cc(F)c(C(=O)NS(C)(=O)=O)cc2Cl)c2ccccc12 | 6.68
* CS(=O)(=O)NC(=O)c1cc(F)c(-n2nc(-c3ccc(C(F)(F)F)cc3)c3cc(Cl)ccc32)cc1Cl | 6.26
* CS(=O)(=O)NC(=O)c1cc(Cl)c(-n2cc(-c3cccc(C(F)(F)F)c3)c3cc(Cl)cnc32)cc1F | 6.57
* COc1ccc(-c2nn(-c3cc(Cl)c(C(=O)NS(C)(=O)=O)cc3F)c3ccc(Cl)cc23)cc1 | 5.83
* CS(=O)(=O)NC(=O)c1cc(Cl)c(-n2nc(-c3ccccc3)c3cc(Cl)ccc32)cc1F | 7.32
* CS(=O)(=O)NC(=O)c1cc(F)c(-n2nc(-c3ccccc3F)c3cc(Cl)ccc32)cc1Cl | 6.12
* COc1ccc(-c2nn(-c3ccc(C(=O)NS(C)(=O)=O)cc3C#N)c3ccc(Cl)cc23)cc1 | 6.65

====

subject_of_test: human sodium ion channel 1.7 (hNav1.7) (Homo sapiens, UniProt Q15858)
assay_notes: Blocking effect against sodium ion channel Nav1.7, IonFlux16 auto patch clamp in hNav1.7 HEK293 cells
Type: cell-based
particulars: hNav1.7 HEK293 cells; inhibition of peak current after 50 seconds treatment; eight concentrations; read-out: IC50
pIC50: −log10 of the molar value.
measured_parameter: pIC50

• CS(=O)(=O)NC(=O)c1cc(Cl)c(-n2nc(/C=C/c3ccccc3)c3cc(Cl)ccc32)cc1F [Example 133] = 6.92
• CS(=O)(=O)NC(=O)c1cc(Cl)c(-n2nc(Cl)c3cc(-c4cncc(Cl)c4)ccc32)cc1F [Example 242] = 6.09

====

subject_of_test: human sodium ion channel 1.7 (hNav1.7) (Homo sapiens, UniProt Q15858)
assay_notes: Blocking effect against sodium ion channel Nav1.7, IonFlux16 auto patch clamp in hNav1.7 HEK293 cells
Type: cell-based
particulars: hNav1.7 HEK293 cells; inhibition of peak current after 50 seconds treatment; eight concentrations; read-out: IC50
pIC50: −log10 of the molar value.
# pIC50 >= 7 gives y, anything below gives n

• CS(=O)(=O)NC(=O)c1cc(Cl)c(-n2nc(-c3ccc(C(F)(F)F)cc3)c3cc(Cl)ccc32)cc1F [Example 65] = y
• CN(C(=O)c1cc(Cl)c(-n2nc(-c3ccc(Cl)cc3F)c3cc(Cl)ccc32)cc1F)S(C)(=O)=O [Example 139] = n
• CS(=O)(=O)NC(=O)c1cc(Cl)c(-n2nc(Cl)c3cc(-c4ccc(Cl)cc4)ccc32)cc1F [Example 255] = n
• CS(=O)(=O)NC(=O)c1ccc(-n2nc(-c3ccccc3C#N)c3cc(Cl)ccc32)c(C#N)c1 [Example 94] = n
• Cc1cc(F)ccc1-c1cn(-c2cc(F)c(C(=O)NS(C)(=O)=O)cc2Cl)c2ncc(F)cc12 [Example 212] = n

====

subject_of_test: human sodium ion channel 1.7 (hNav1.7) (Homo sapiens, UniProt Q15858)
assay_notes: Blocking effect against sodium ion channel Nav1.7, IonFlux16 auto patch clamp in hNav1.7 HEK293 cells
Assay type: cell-based
particulars: hNav1.7 HEK293 cells; inhibition of peak current after 50 seconds treatment; eight concentrations; read-out: IC50
pIC50: −log10 of the molar value.
Entries annotated with measured pIC50
measured_parameter: pIC50

• CS(=O)(=O)NC(=O)c1cc(Cl)c(-n2nc(-c3cc(F)cc(Cl)c3)c3cc(F)ccc32)cc1F = 7.00
• CS(=O)(=O)NC(=O)c1cc(Cl)c(-n2nc(Cl)c3cc(-c4ccc(C(F)(F)F)cc4)ccc32)cc1F = 6.95
• CS(=O)(=O)NC(=O)c1cc(Cl)c(-n2nc(-c3cccc(Cl)c3)c3cc(Cl)ccc32)cc1F = 7.21

====

subject_of_test: human sodium ion channel 1.7 (hNav1.7) (Homo sapiens, UniProt Q15858)
assay_notes: Blocking effect against sodium ion channel Nav1.7, IonFlux16 auto patch clamp in hNav1.7 HEK293 cells
Type: cell-based
particulars: hNav1.7 HEK293 cells; inhibition of peak current after 50 seconds treatment; eight concentrations; read-out: IC50
// classify: if (IC50 < 500 nM) YES else NO

- CS(=O)(=O)NC(=O)c1cc(Cl)c(-n2nc(Cl)c3cc(Oc4ccc(F)nc4)ccc32)cc1F [Example 47]: YES
- CS(=O)(=O)NC(=O)c1cc(Cl)c(-n2cc(-c3ccccc3Cl)c3cccnc32)cc1F [Example 225]: YES
- CC(C)(O)C#Cc1nn(-c2cc(F)c(C(=O)NS(C)(=O)=O)cc2Cl)c2ccc(Cl)cc12 [Example 129]: NO
- CS(=O)(=O)NC(=O)c1cc(Cl)c(-n2nc(-c3cccnc3)c3cc(F)ccc32)cc1F [Example 165]: NO
- O=c1[nH]nc(-c2cc(Cl)c(-n3nc(-c4ccc(Cl)cc4F)c4cc(Cl)ccc43)cc2F)[nH]1 [Example 291]: NO
- CS(=O)(=O)NC(=O)c1cc(Cl)c(-n2nc(-c3ccc(F)cc3F)c3cc(F)ccc32)cc1F [Example 159]: YES
- CS(=O)(=O)NC(=O)c1cc(Cl)c(-n2cc(-c3cccc(C(F)(F)F)c3)c3cccnc32)cc1F [Example 217]: NO
